Entries and their measured pIC50 follow.
# system: KCNT1 (KNa1.1, Slack) (Homo sapiens, UniProt Q5JUK3)
# Sequence (Q5JUK3 whole entry): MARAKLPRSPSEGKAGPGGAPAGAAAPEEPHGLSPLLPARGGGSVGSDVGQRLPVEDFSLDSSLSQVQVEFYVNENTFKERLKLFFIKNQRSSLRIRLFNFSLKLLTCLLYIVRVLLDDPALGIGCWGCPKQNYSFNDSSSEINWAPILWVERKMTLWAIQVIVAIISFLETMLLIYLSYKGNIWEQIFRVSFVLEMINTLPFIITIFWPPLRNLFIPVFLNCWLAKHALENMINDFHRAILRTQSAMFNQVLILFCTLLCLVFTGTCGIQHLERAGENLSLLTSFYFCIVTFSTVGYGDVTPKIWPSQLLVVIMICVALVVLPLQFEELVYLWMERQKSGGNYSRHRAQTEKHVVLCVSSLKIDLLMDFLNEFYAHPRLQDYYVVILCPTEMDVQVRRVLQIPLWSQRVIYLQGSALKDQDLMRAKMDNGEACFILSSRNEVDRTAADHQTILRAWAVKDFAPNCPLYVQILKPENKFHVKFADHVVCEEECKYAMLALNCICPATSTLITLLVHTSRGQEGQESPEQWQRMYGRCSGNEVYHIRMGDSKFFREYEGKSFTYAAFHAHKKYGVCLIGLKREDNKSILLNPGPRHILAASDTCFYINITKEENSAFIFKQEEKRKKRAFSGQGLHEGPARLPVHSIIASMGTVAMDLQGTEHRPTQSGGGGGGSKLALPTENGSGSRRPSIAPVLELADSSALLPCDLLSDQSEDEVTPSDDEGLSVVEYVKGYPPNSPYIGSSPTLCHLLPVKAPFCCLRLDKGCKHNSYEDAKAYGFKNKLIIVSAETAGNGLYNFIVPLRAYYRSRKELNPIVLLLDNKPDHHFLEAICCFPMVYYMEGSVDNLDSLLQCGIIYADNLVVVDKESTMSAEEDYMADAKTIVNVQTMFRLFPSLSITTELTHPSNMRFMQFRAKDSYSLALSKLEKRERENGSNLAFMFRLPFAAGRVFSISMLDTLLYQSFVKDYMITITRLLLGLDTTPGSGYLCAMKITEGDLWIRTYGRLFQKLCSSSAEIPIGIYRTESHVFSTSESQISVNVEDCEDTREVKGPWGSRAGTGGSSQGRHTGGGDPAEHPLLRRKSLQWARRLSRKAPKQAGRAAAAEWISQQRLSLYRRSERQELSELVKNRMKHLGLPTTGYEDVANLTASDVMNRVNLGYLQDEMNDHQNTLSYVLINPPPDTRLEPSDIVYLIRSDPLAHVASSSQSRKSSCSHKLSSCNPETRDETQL
# method notes: KCNT1 patch clamp assay (SyncroPatch 384PE automated patch clamp)
# experimental context: tetracycline inducible HEK-TREX cell line; perforated patch; step from −80 mV to 0 mV; room temperature; read-out: KCNT1-WT IC50
pIC50: −log10 of the molar value.

Example entries begin here.
C[C@@H](NC(=O)c1cc(C2CC2)nn1C)c1nc(-c2cccc(F)c2)no1 (single isomer, unassigned) [Compound 93]: 4.70 to 6.00
COc1cccc(-c2noc([C@H](C)NC(=O)OC(C)(C)C)n2)c1 [Compound 283]: 4.70 to 6.00
CC[C@@H](NC(=O)c1cc(C2CC2)nn1C)c1nc(-c2cccc(F)c2)no1 [Compound 61]: ≥ 6.00

// C[C@H](NC(=O)OC(C)(C)C)c1nc(-c2ccnc(C3(C)CC3)c2)no1 [Compound 272] : pIC50 value = 4.70 to 6.00
